Sourced from ChEMBL document CHEMBL1158986

# Test system: Mycolicibacterium smegmatis
# Test method notes: Antimicrobial activity against Mycobacterium smegmatis after 48 hrs by twofold serial broth dilution technique
# Assay type: functional
Measured property: MIC (µg/mL)
Field: numeric (µg/mL). Do not append units.

Notebook: CC(=O)C1=C(O)C(C)(CC=C(C)C)C(O)=C(Cc2c(OCC=C(C)C)cc(O)c(C(C)=O)c2O)C1=O (stereo not given) [DRUMMONDIN E] , MIC read as 3.12

Notebook: CC(=O)C1=C(O)C(C)(CC=C(C)C)C(O)=C(Cc2c(O)c(CC=C(C)C)c(O)c(C(C)=O)c2O)C1=O (stereo not given) [DRUMMONDIN F] , MIC read as 1.56

Notebook: CN[C@@H]1[C@H](O[C@H]2[C@H](O[C@H]3[C@H](O)[C@@H](O)[C@H](N=C(N)N)[C@@H](O)[C@@H]3N=C(N)N)O[C@@H](C)[C@]2(O)C=O)O[C@@H](CO)[C@H](O)[C@H]1O [STREPTOMYCIN] , MIC read as 1.56

Notebook: CC(=O)C1=C(O)C(C)(CC=C(C)C)C(O)=C(Cc2c(O)c3c(c(C(C)=O)c2O)OC(C)(C)C=C3)C1=O (stereo not given) [DRUMMONDIN D] , MIC read as 1.56

Notebook: CC(=O)C1=C(O)C(C)(CC=C(C)C)C(O)=C(Cc2c(O)c(C(C)=O)c(O)c3c2OC(C)(C)C=C3)C1=O (stereo not given) [ISODRUMMONDIN D] , MIC read as 1.56
